System: JAK1-dependent STAT6 phosphorylation downstream of IL-13 stimulation in TF-1 human erythroleukemia cells
protocol_summary: JAK1 pathway assay in TF-1 cells (IL-13-pSTAT6, MSD)
Type: cell-based
stated_conditions: Homo sapiens, TF-1, TF-1 cells, read-out: IL13-pSTAT6 EC50_TF-1
Method: JAK1 Pathway Assay in Cell Lines was Carried Out as Follows: Inhibitor potency (EC50) was determined in cell-based assays designed to measure JAK1 dependent STAT phosphorylation. […] Test compounds were serially diluted 1:2 in DMSO and then diluted 1:50 in medium just before use. […] Then, cells were stimulated with human recombinant cytokine at their respective EC90 concentrations, as previously determined for each individual lot. […]
pEC50: −log10 of the molar value.
observation_type: pEC50

Consider the worked cases shown below.
{"columns": ["compound_structure_string", "pEC50"],
 "data": [
  ["Nc1nn2cccnc2c1C(=O)Nc1cn([C@H]2C[C@@H](N)C2)nc1-c1cc(Cl)ccc1OC(F)F", 8.15],
  ["CN(CCOc1ccccc1Cl)C1CCN(C(=O)Cn2cc(NC(=O)c3cnn4cccnc34)c(-c3cc(Cl)ccc3OC(F)F)n2)CC1", 7.81]
]}

P: O=C(Nc1cn(CC(=O)N2C[C@H]3CNC[C@H]3C2)nc1-c1cc(Cl)ccc1OC(F)F)c1cnn2cccnc12
Q: O=C(Nc1cn(CC(=O)N2CCC(N(CCC(F)(F)F)Cc3ccccc3)CC2)nc1-c1cc(Cl)ccc1OC(F)F)c1cnn2cccnc12
R: CN1CCC2(CC1)CN(C(=O)Cn1cc(NC(=O)c3cnn4cccnc34)c(-c3cc(Cl)ccc3OC(F)F)n1)C2
S: Nc1nn2cccnc2c1C(=O)Nc1cn(C2CCN(CCCN3CCNC3=O)CC2)nc1-c1cc(Cl)ccc1OC(F)F
T: CN(C)C[C@@H]1CCCN1C(=O)Cn1cc(NC(=O)c2c(N)nn3cccnc23)c(-c2cc(Cl)ccc2OC(F)F)n1
Descending sort on pEC50 required. A ranking is expressed here by listing the labels in the requested order.
S, R, Q, T, P
(S: 8.14, R: 7.90, Q: 7.00, T: 6.80, P: 6.26)

---

target_under_test: isolated recombinant JAK1 kinase domain (Homo sapiens (Human))
Sequence (P23458 875-1153): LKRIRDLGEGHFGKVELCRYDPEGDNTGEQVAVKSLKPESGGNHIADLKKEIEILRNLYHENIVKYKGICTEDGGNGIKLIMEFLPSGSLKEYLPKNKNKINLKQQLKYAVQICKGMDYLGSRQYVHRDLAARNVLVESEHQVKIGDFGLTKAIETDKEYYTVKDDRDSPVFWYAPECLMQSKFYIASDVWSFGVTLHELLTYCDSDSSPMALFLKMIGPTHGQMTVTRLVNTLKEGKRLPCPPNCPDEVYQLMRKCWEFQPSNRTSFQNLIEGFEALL
protocol_summary: JAK1 enzyme assay (Caliper LabChip, peptide phosphorylation)
Assay type: biochemical
stated_conditions: isolated recombinant JAK1 kinase domain, 25 μM ATP
pKi: −log10 of the molar value.
observation_type: pKi

Consider the worked cases shown below.
{"columns": ["compound", "value"],
 "data": [
  ["Nc1nn2cccnc2c1C(=O)Nc1cn([C@@H]2CCNC2)nc1-c1cc(Cl)ccc1OC(F)F [Example 185]", 9.23],
  ["O=C(Nc1cn(CC(=O)N2CCNCC2)nc1-c1cc(Cl)ccc1OC(F)F)c1cnn2cccnc12 [Example 324]", 9.02]
]}

I: COC(=O)C1CCN(CCN2CCN(C(=O)Cn3cc(NC(=O)c4cnn5cccnc45)c(-c4cc(Cl)ccc4OC(F)F)n3)CC2)CC1 [Example 333]
II: CN1CCN(c2ccc(-c3nc(-c4cc(Cl)ccc4OC(F)F)c(NC(=O)c4cnn5cccnc45)s3)cc2)CC1 [Example 258]
For this pair, I and II , which shows a numerically higher pKi? # reply format: chosen label
I

a: CCOC(=O)CNCCn1cc(NC(=O)c2cnn3cccnc23)c(-c2cc(Cl)ccc2OC(F)F)n1 [Example 306]
b: CN(CC1(C#N)CCCCC1)C1CCN(C(=O)C2CCN(c3nc(-c4cc(Cl)ccc4OC(F)F)c(NC(=O)c4cnn5cccnc45)s3)CC2)CC1 [Example 204]
Returns the identifier with the smallest measured pKi among a and b . # reply format: chosen label
b
(b: 8.70, a: 8.94)

P: COC(=O)[C@@H](N)CCn1cc(NC(=O)c2cnn3cccnc23)c(-c2cc(Cl)ccc2OC(F)F)n1 [Example 387]
Q: CNC(=O)CN1CCN(C(=O)Cn2cc(NC(=O)c3cnn4cccnc34)c(-c3cc(Cl)ccc3OC(F)F)n2)CC1 [Example 383]
R: O=C(Nc1cn(CC(=O)N2C[C@@H]3CCN[C@@H]3C2)nc1-c1cc(Cl)ccc1OC(F)F)c1cnn2cccnc12 [Example 444]
S: CCCCN(CCOc1ccc(C)cc1)C1CCN(C(=O)Cn2cc(NC(=O)c3cnn4cccnc34)c(-c3cc(Cl)ccc3OC(F)F)n2)CC1 [Example 108]
Your job: order these 4 records by pKi, ascending. A ranking is expressed here by listing the labels in the requested order.
S, P, R, Q
